- Test system: MYB mRNA
- ASSAY_SUMMARY: Splicing RT-qPCR assay, MYB canonical (CJ) and alternative (AJ) junction mRNA
- Assay type: cell-based, human
- TEST_SETTINGS: Homo sapiens, 24 h, A673 or K562 cells, 24 hours compound treatment, RT-qPCR; read-out: MYB AJ (AC50, increase in alternative junction mRNA)
Assignment: determine reported AC50 for the given molecules.

Data point: `CCN1CCC(c2ccc(C(=O)Nc3cc(F)c4nc(C)cn4c3)c3nn(C)cc23)CC1` ; AC50 = < 0.1 µM

Data point: `Cc1cn2nc(NC(=O)c3ccc(N4CCNCC4)c4cc(C)oc34)nc2c(C)n1` ; AC50 = > 10 µM

Data point: CCNC1CCN(c2ccc(C(=O)Nc3cn4cc(C)nc4c(F)c3OC)c3oc(C)cc23)CC1 [Compound 501, 2,2,2-trifluoroacetate] ; AC50 = < 0.1 µM

Data point: `Cc1cn2cc(NC(=O)c3ccc(N4CC[C@@H](N5C[C@@H](C)N[C@@H](C)C5)C4)c4cn(C)nc34)cc(F)c2n1` ; AC50 = 0.1 to 1 µM

Data point: CCC1CN(c2ccc(C(=O)Nc3cc(F)c4nc(C)cn4c3)c3oc(C)cc23)CCN1 (stereo not drawn) ; AC50 = 0.1 to 1 µM

Data point: CCC1CN(c2ccc(C(=O)Nc3cc(F)c4nc(C)cn4c3)c3nn(C)cc23)CCN1 (stereo not drawn) ; AC50 = 0.1 to 1 µM

Data point: `CCNC1CCN(c2ccc(C(=O)Nc3cc(F)c4nc(C)sc4c3)c3nn(C)cc23)CC1` ; AC50 = < 0.1 µM

Data point: `Cc1cn2cc(NC(=O)c3ccc(C4CCNCC4)c4c3OCC4)cc(F)c2n1` ; AC50 = 1 to 10 µM

Data point: `COc1c(NC(=O)c2ccc(N3CCNCC3)c3cn(C)nc23)cc2cn(C)nc2c1C` ; AC50 = 1 to 10 µM

Values were extracted from patent US20250154169A1.
